system: XF 498 CNS; assay: NCI tumour cell line growth inhibition, 48 h
Field: TGI. Provide a value for each of the compounds that follow.
Just the number in µM, nothing appended.

Indicate its recorded TGI; the compound in question is CC(C)(C)c1cc(C(O)(C(F)(F)F)C(F)(F)F)c2c(c1)C(C(F)(F)F)(C(F)(F)F)OC(c1ccccc1)(C(C)(C)C)N2 (stereo not given)
6.24

Indicate its recorded TGI; the compound in question is O=C(O)/C(Cl)=C(/Cl)C(=O)Nc1cccc(Cl)c1
34.3

Indicate its recorded TGI; the compound in question is CC(C)(C)NNc1c([N+](=O)[O-])cnn(-c2ccccc2)c1=O
5.22

Indicate its recorded TGI; the compound in question is CCN(CCCl)CCNc1c2ccccc2nc2ccc(OC)cc12
2.43

Indicate its recorded TGI; the compound in question is COc1cc(/C=C\c2ccc(SC)cc2)cc(OC)c1OC
19.8

###

tested on: K-562 leukemia; assay: NCI tumour cell line growth inhibition, 48 h; in the data active = GI50 below about 0.43 µM; inactive = the rest
One label from this list, please: active, inactive

# fetch the recorded call for N#Cc1c2ccccc2c2nnc3cc(Cl)c(Cl)cc3n12 here
inactive

# fetch the recorded call for CC1=C(C)C(=O)C(C(C)C2=C(C)C(=O)C(C)=C(C)C2=O)=C(C)C1=O here
inactive

# fetch the recorded call for C=C1C(=O)O[C@H]2[C@H]1CC/C(COC(=O)CCC(=O)OC/C1=C/CC[C@@]3(C)O[C@H]3[C@H]3OC(=O)C(=C)[C@@H]3CC1)=C\CC[C@@]1(C)O[C@@H]21 here
inactive

# fetch the recorded call for Cn1c2ccccc2c2c3c(c4c5ccccc5n(CCCCCC#N)c4c21)C(=O)N(O)C3=O here
inactive

# fetch the recorded call for Cn1c(=O)c(Cc2ccc(F)cc2F)cc2cnc(NC3CCOCC3)nc21 here
inactive

# fetch the recorded call for C=C1C(=O)O[C@H]2[C@H]1CC/C(Cn1cc(CCC)nn1)=C\CC[C@@]1(C)O[C@@H]21 here
inactive

# fetch the recorded call for COc1cc(-c2ccc(-c3ccc(C(=N)N)s3)s2)cc(OC)c1OC here
inactive

# fetch the recorded call for COc1ccccc1Nc1nc(-c2cc3cccc(C(F)(F)F)c3oc2=O)cs1 here
active

# fetch the recorded call for CNCCNc1nc2ccccc2c2c(=O)c3cccc(OC)c3sc12 here
inactive

# fetch the recorded call for NS(=O)(=O)c1ccc(-n2nc(-c3ccc(Cl)cc3)cc2C2=CC(=O)C=CC2=O)cc1 here
inactive

# fetch the recorded call for Fc1ccc(Nc2nc(Nc3ccc(-c4nc5ccccc5[nH]4)cc3)nc(N3CCCC3)n2)cc1 here
inactive

###

test system: OVCAR-5 ovarian; assay: NCI tumour cell line growth inhibition, 48 h; in the data active = GI50 below about 0.43 µM; inactive = the rest
One label from this list, please: y (active), n (inactive)

# fetch the recorded call for Cc1ccccc1NC(=O)NC(CC(N)=O)c1ccc2c(c1)nc(-c1cccc(Oc3ccc(C(C)(C)C)cc3)c1)n2CCCN1CCCCC1C (configuration not stated) here
n

# fetch the recorded call for CC(C)[C@]12O[C@H]1[C@@H]1O[C@]13[C@]1(O[C@H]1C[C@H]1c4c(C(=O)c5ccccc5)oc(OC(=O)c5ccccc5)c4CC[C@@]13C)[C@@H]2O here
y

# fetch the recorded call for Fc1ccc(Nc2nc(Nc3ccc(-c4nc5ccccc5[nH]4)cc3)nc(N3CCCC3)n2)cc1 here
n

# fetch the recorded call for CC(C)(C)CC(C)(C)Cc1ccc(OCCOCC[N+](C)(C)Cc2ccccc2)cc1 here
n

# fetch the recorded call for COc1cc2c(cc1-c1c(C)noc1C)ncc1nc(C3CCCCC3)n(C3CCC(OC(F)F)CC3)c12 (configuration not stated) here
n

# fetch the recorded call for O=C(CCN1CCCC1)Nc1ccc2c(NCCCCc3ccccc3)c3ccccc3nc2c1 here
n

# fetch the recorded call for CN(C)/[N+]([O-])=N/Oc1cc(Nc2ccc(C(=O)O)cc2)c([N+](=O)[O-])cc1[N+](=O)[O-] here
n

# fetch the recorded call for O=Nc1c(-c2cccc([N+](=O)[O-])c2)nc2ncccn12 here
n

# fetch the recorded call for Cc1ccc(/C=C(\C#N)n2nnc3cc(F)c(F)cc32)cc1 here
n

# fetch the recorded call for O=C1c2cccc3cccc(c23)C(=O)N1CCCCOc1ccc(-c2nc3ccc(N4CCOCC4)cc3[nH]2)cc1 here
n

# fetch the recorded call for O=C1c2cccnc2-c2nc(-c3ccc([N+](=O)[O-])cc3)cc3c2c1nc1ccccc13 here
n

# fetch the recorded call for O=C1c2cc3c(cc2-c2c1c1ccc([N+](=O)[O-])cc1c(=O)n2CCCCl)OCO3 here
n
